Test system: UACC-62
Test Protocol: NCI tumour cell line growth inhibition, 48 h
Activity calls are given as the source filed them. No stated cut-off is given here; in the data, active = GI50 up to about 1.1 µM and inactive = higher.
Metric: GI50

[[record]]
compound = "CCOC(=O)CCC1(CCC(=O)OCC)CCCCCCCCC(CCC(=O)OCC)(CCC(=O)OCC)C(=O)C1=O"
metric = "GI50"
reported_value = "> 100 µM (inactive)"

[[record]]
compound = "CC1NC(/C(=C/c2ccccc2O)NC(=O)c2ccccc2)OC1=O (stereo not given)"
metric = "GI50"
reported_value = "> 50 µM (inactive)"


State recorded GI50 for all listed compounds.
1. C=C(COC(C)=O)CC(/C=C(\C)CCC=C(C)C)OC(C)=O (stereo not given)
2. CN(C)CCC1(C2=CCCC2)CC/C(=C\c2ccc(Cl)cc2)C1=O (stereo not given)
3. CN1C(=O)C(=CNc2ccccc2[N+](=O)[O-])C(=O)N(C)C1=O
4. CN(C)CCNC(=O)c1cc(Cl)cc2cc3ccccc3nc12

**A:**
1. > 100 µM (inactive)
2. 3.08 µM (inactive)
3. > 100 µM (inactive)
4. 0.652 µM (active)

State recorded GI50 for all listed compounds.
1. CCOc1ccc(/N=N/c2ccc3cc(/C(C)=N/NC(=O)/C(C#N)=C\c4ccc(N(CCC#N)CCC#N)cc4)c(=O)oc3c2)cc1
2. COC1=NN2C(OC)(c3ccccc3)c3c(-c4ccccc4)sc(-c4ccccc4)c3C2(c2ccccc2)S1 (stereo not given)
3. CSc1ncc2c(n1)-c1ccccc1OC2NC(C)(C)C (stereo not given)
4. CN(C)CCn1c(CO)nc2c1c(=O)n(C)c(=O)n2C
5. COc1ccc(C(=C2C(=O)N(c3ccccc3)C(=O)C2=C(C)C)c2ccc(OC)cc2)cc1
6. Cc1ccc(O)c(C2=NNC(c3cccc(Br)c3)C2)c1 (stereo not given)

**A:**
> 10 µM (inactive)
> 100 µM (inactive)
68.1 µM (inactive)
> 100 µM (inactive)
3.41 µM (inactive)
35.7 µM (inactive)

----------
Would you mind telling me the reported GI50 of each entry?
Tested on: BT-549
Test Protocol: NCI tumour cell line growth inhibition, 48 h
Activity calls are given as the source filed them. No stated cut-off is given here; in the data, active = GI50 up to about 1.1 µM and inactive = higher.

[[record]]
chemical_string = "CN1C(=O)C(=CNc2ccccc2[N+](=O)[O-])C(=O)N(C)C1=O"
subject_of_test = "BT-549"
reported_value = "> 100 µM (inactive)"

[[record]]
chemical_string = "CCOC(=O)/C=C(\\C(=O)OCC)n1ccc(=O)n(Cc2cnnn2COCCOC(C)=O)c1=O"
subject_of_test = "BT-549"
reported_value = "8.28 µM (inactive)"


**Q:** BT-549 / GI50 / "N=C(N)NS(=O)(=O)c1ccc(Nc2c3ccccc3nc3ccc(C(=O)Nc4ccc(S(N)(=O)=O)cc4)cc23)cc1" : value?
**A:** > 100 µM (inactive)

----------
Tested on: SW-620
Test Protocol: NCI tumour cell line growth inhibition, 48 h
Calls of active or inactive are those of the source. No stated cut-off is given here; in the data, active = GI50 up to about 1.1 µM and inactive = higher.
Would you mind telling me the reported GI50 of each entry?

[[record]]
compound = "CN(CCn1cnc2c1c(=O)n(C)c(=O)n2C)C1CCCCC1"
reported_value = "> 100 µM (inactive)"

[[record]]
compound = "O=c1c(-c2ccc3c(c2)OCO3)coc2c3c(ccc12)OCO3"
reported_value = "39.7 µM (inactive)"

[[record]]
compound = "CCOC(=O)C1=NN(c2ccc(Cl)cc2)C2=CC(C)=NN(C)C(=S)N21"
reported_value = "94.6 µM (inactive)"


State recorded GI50 for all listed compounds.
1. CC1CCN(c2nnc(Cl)cc2C(=O)c2ccccc2)CC1
2. COc1ccc(/N=c2\ssc3c(=S)ssc23)cc1
3. CC(=O)Oc1ccc(C(c2ccc(OC(C)=O)cc2)c2ccccn2)cc1
4. COC(=O)C(=O)OC1(C(C)=O)CC2(c3ccccc3)OC1(c1ccccc1)c1ccccc12 (stereo unspecified)
5. CN(C)CCn1c(CO)nc2c1c(=O)n(C)c(=O)n2C
6. Cn1c2ccccc2n2c3ccccc3c3nnc(N)c-3c12

**A:**
1. 22.1 µM (inactive)
2. 15.3 µM (inactive)
3. > 100 µM (inactive)
4. 16.4 µM (inactive)
5. > 100 µM (inactive)
6. 57.8 µM (inactive)

State recorded GI50 for all listed compounds.
1. CCCCCCSc1nc(N)nc2nc[nH]c12
2. c1ccc2c(c1)SCCc1cn[nH]c1-2

**A:**
56.2 µM (inactive)
> 100 µM (inactive)

----------
Would you mind telling me the reported GI50 of each entry?
Tested on: CAKI-1
Test Protocol: NCI tumour cell line growth inhibition, 48 h
Calls of active or inactive are those of the source. Cut-off read from the data, not from the text of the source: active = GI50 up to about 1.1 µM and inactive = higher.

In the examples that follow, each entry is paired with its recorded GI50.
[[record]]
compound = "c1ccc2nc3c(nc2c1)sc1ccccc13"
metric = "GI50"
reported_value = "9.25 µM (inactive)"

[[record]]
compound = "CC(=O)OCC1OC(Oc2cc(C)c(O)cc2C/C=C(\\C)CC/C=C(\\C)CC(=O)CC(C)C)C(O)C(OC(C)=O)C1OC(C)=O (centres undefined)"
metric = "GI50"
reported_value = "30.3 µM (inactive)"

[[record]]
compound = "CN(C)c1ccc(/C=C2\\C[C@H]3[C@@H]4CCc5cc(OCCN6CCCC6)ccc5[C@H]4CC[C@]3(C)C2=O)cc1"
metric = "GI50"
reported_value = "1.45 µM (inactive)"


Consider the record given below.
**Q:** Need GI50 of "COc1cc(O)c2c(=O)c(OC)c(-c3ccc(OC)c(OC)c3)oc2c1.[Zn+2]" , thanks.
**A:** 11.2 µM (inactive)

----------
Tested on: MDA-MB-435
Test Protocol: NCI tumour cell line growth inhibition, 48 h
Calls of active or inactive are those of the source. No stated cut-off is given here; in the data, active = GI50 up to about 1.1 µM and inactive = higher.
Outcomes you can answer with include only these: active, inactive

The examples below pair each entry with its known result.
[[record]]
compound = "CC(C)C1CSC2N1C(=O)C2(OCc1ccccc1)C1CC1 (stereo not given)"
class_name = "inactive"

[[record]]
compound = "Cn1c(N)nc(-c2ccc(Cl)cc2)c1SSc1c(-c2ccc(Cl)cc2)nc(N)n1C"
class_name = "inactive"

[[record]]
compound = "C[C@@H]1CC(=O)[C@@]2(C)[C@](O)(CCC3O[C@]32C)[C@@]12CC(c1ccoc1)OC2=O (stereo not given in full)"
class_name = "inactive"


**Q:** # lookup: test call for "Cn1c2c(c3ccccc3c1=O)C(=O)c1ccccc1-2"
**A:** inactive

**Q:** # lookup: test call for "O=C(c1ccccc1)c1ccc(N2C(=O)/C(=C/Cc3ccco3)N=C2c2ccccc2)c(N2C(=O)/C(=C/Cc3ccco3)N=C2c2ccccc2)c1"
**A:** inactive

**Q:** # lookup: test call for CC(=O)N1NC(c2ccccc2)=NC(=O)C1c1cc(C)c(O)c(C)c1 (stereo not given)
**A:** inactive

**Q:** # lookup: test call for "O=C(NC(=O)c1ccccc1[N+](=O)[O-])Nc1ccc(Oc2ncc(Cl)cn2)c(C(F)(F)F)c1"
**A:** active

**Q:** # lookup: test call for CC(C)(C)OC(=O)N1N=CCC1c1ccccc1 (stereo not given)
**A:** inactive

**Q:** # lookup: test call for O=C(C1OC1c1ccc(Br)cc1O)C12CC3CC(CC(C3)C1)C2 (stereo not given)
**A:** inactive

**Q:** # lookup: test call for "O=C(c1ccc(Br)cc1)n1c2ccc(Br)cc2c2nc3ccccc3nc21"
**A:** inactive

----------
Tested on: MDA-MB-231
Test Protocol: NCI tumour cell line growth inhibition, 48 h
The source made the active and inactive calls. Rule as the data show it: active = GI50 up to about 1.1 µM and inactive = higher.
Metric: GI50

[[record]]
chemical_string = "CCOc1c2ccsc2c(OCC)c2ccsc12"
reported_value = "8.57 µM (inactive)"

[[record]]
chemical_string = "Cc1ccnc2nc3[nH]c4ccccc4c3cc12"
reported_value = "> 100 µM (inactive)"

[[record]]
chemical_string = "COc1cc2c(cc1OC)-c1cc3cc(OC)c(OC)cc3c(=O)n1CC2"
reported_value = "14.8 µM (inactive)"

[[record]]
chemical_string = "Sc1cnnc2ccc(Br)cc12"
reported_value = "> 100 µM (inactive)"

[[record]]
chemical_string = "O=c1c2c3c(sc2nc2n1N=C(c1ccc(Br)cc1)CS2)CCCC3"
reported_value = "> 100 µM (inactive)"

[[record]]
chemical_string = "CC1=C[C@@H](C)C[C@]2(C)CC[C@H](O2)[C@]23CC[C@](C(=O)O)(C[C@H](O2)[C@@H]2O[C@@](C)(CC2=O)[C@@H](O)[C@H]2CC[C@@]4(CCC[C@@H](O4)[C@H](C)C(=O)O[C@H]4C[C@H]([C@]5(O)OCC[C@H](C)[C@@H]5O)O[C@H]4C=C1)O2)O3"
reported_value = "> 10 µM (inactive)"

[[record]]
chemical_string = "Nc1cc2ncnn2c(SCC(=O)N/N=C/C(Br)=C\\c2ccccc2)n1"
reported_value = "15.5 µM (inactive)"

[[record]]
chemical_string = "O=C(N/N=C1\\C(=O)Nc2c(Cl)cc(Cl)cc21)C(=O)Nc1cccc(C(F)(F)F)c1"
reported_value = "94.4 µM (inactive)"


Consider the record given below.
**Q:** MDA-MB-231 / GI50 / "COC(=O)c1c(C)c2c(c(C)c1C(=O)OC)-c1c(C)ccc3ccc(C)c-2c13" : value?
**A:** 3.94 µM (inactive)

Data provenance: ChEMBL document CHEMBL1201862
